# measuredOn: D(1A) dopamine receptor (Homo sapiens, UniProt P21728)
# Sequence (P21728 whole entry): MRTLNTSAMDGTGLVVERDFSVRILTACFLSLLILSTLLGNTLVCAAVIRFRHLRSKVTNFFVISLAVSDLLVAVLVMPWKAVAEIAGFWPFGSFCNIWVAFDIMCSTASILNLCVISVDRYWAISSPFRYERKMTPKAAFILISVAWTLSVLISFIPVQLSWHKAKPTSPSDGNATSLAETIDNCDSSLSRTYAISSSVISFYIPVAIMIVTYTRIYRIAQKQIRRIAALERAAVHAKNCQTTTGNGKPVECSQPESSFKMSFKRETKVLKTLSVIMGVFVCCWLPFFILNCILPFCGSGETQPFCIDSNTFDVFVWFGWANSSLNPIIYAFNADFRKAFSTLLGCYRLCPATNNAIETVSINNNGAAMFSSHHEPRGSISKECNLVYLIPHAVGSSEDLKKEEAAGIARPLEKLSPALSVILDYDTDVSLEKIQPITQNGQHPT
# testMethodNotes: Antagonist activity at dopamine D1 receptor
assayMetric: pEC50
Give bare numbers, as −log10 of the molar value.

Inquiry: Output pEC50 of COc1cc2c(cc1O)CN1CCc3cc(OC)c(O)cc3[C@@H]1C2
Reply text: 8.25
